Data provenance: patent US6835745B2

Target: human ERα (Homo sapiens, UniProt P03372)
Construct: amino acids M250-V595 of human ERα; His (N); Flag (C)
Sequence (P03372 250-595): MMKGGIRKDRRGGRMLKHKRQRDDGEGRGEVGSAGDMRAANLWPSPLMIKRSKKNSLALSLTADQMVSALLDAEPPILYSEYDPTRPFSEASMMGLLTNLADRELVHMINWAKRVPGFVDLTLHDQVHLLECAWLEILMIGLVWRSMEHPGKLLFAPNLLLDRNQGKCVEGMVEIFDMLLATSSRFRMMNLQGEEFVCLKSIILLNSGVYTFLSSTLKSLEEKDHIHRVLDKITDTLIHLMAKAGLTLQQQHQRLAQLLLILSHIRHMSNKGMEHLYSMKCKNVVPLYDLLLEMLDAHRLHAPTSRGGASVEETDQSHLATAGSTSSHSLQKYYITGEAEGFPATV
Assay: Radioligand binding competition with [3H]-17β-estradiol, ERα
Settings: human ERα ligand binding domain extract, read-out: ER-α IC50
observed property: IC50 (nM)

> print(dat)
                                   compound  endpoint.unit  result.number
1  Cc1c(-c2ccc(O)c(F)c2)sc(C=O)c1-c1ccc(O)c(Cl)c1             nM             88

A = Cc1cc(O)ccc1-c1sc(C=O)c(-c2ccc(O)c(F)c2)c1C
B = CON=Cc1sc(-c2ccc(O)cc2)c(C)c1-c1ccc(O)cc1
C = Cc1c(-c2ccc(O)cc2)sc(C=NO)c1-c1cccc(O)c1 (mixture of isomers)
D = Cc1ccc(O)cc1-c1c(C=O)sc(-c2ccc(O)cc2)c1C
// query // ranking: key=IC50, reverse=True Answer format: the labels, in the requested order.
// result D, C, B, A

1 = Cc1c(-c2ccc(O)cc2)sc(C=O)c1-c1cccc(O)c1
2 = Cc1cc(O)ccc1-c1c(C=O)sc(-c2ccc(O)c(F)c2)c1C
// query In terms of reported IC50, does 1 or 2 have the smaller number? Returns: label corresponding to the selected item.
// result 2
(2: 85 nM, 1: 212 nM)

I = Cc1c(-c2ccc(O)c(F)c2)sc(C=O)c1-c1ccc(O)cc1
II = Cc1c(-c2ccc(O)c(Cl)c2)sc(C=O)c1-c1ccc(O)c(F)c1
// query Of the two listed items, which has the higher IC50? First: I Second: II Returns: label corresponding to the selected item.
// result II
(II: 157 nM, I: 93 nM)
